The entries below are paired with their reported IC50.
# ASSAY_SYSTEM: Epidermal growth factor receptor (EGFR)(L858R)(T790M) (Homo sapiens, UniProt P00533, L858R/T790M)
# Sequence (P00533 25-1210 T790M/L858R limits assumed): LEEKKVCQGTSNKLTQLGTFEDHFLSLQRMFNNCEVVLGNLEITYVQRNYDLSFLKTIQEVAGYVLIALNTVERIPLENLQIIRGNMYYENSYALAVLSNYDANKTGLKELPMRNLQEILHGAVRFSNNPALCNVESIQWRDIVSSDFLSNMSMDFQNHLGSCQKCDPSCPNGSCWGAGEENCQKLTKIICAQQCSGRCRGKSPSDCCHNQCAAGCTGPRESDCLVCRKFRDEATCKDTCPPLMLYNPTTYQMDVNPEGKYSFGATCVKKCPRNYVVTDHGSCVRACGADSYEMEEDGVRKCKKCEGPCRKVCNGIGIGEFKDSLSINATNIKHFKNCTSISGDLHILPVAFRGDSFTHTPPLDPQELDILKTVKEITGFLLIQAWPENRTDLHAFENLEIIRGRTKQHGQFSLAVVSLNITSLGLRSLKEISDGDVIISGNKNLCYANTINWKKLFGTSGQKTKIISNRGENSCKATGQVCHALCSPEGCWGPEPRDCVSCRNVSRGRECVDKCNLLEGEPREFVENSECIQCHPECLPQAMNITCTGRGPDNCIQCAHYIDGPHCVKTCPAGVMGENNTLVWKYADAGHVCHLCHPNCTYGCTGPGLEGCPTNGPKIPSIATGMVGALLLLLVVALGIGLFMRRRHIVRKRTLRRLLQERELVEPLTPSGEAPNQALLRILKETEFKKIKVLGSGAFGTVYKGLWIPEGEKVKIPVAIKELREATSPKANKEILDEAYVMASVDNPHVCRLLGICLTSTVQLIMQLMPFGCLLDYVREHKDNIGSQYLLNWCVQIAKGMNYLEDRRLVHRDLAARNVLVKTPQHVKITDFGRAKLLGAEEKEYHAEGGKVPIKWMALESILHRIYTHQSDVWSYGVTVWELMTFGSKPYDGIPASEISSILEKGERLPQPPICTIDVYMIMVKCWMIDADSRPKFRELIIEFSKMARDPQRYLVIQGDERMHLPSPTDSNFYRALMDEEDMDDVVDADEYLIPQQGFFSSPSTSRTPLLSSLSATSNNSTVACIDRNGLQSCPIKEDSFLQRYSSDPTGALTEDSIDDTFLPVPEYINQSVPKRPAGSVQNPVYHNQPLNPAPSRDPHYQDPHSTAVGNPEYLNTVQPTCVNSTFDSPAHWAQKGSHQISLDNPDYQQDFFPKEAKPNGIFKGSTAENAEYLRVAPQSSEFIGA
# PROTOCOL_DESCRIPTION: Inhibitory Activity for EGFR (L858R/T790M) Kinase
Report as a plain number; the unit nM is understood.

Quick note, IC50 for Cc1cc2cc(n1)-c1cnn(C)c1OCCC[C@@H](C1CC1)CN1/C(=N/C2=O)Nc2cc(N[C@H]3C[C@@H](N(C)C)C3)ccc21 landed at 0.17

Kindly note the recorded IC50 for Cc1cc2cc(n1)-c1cnn(C)c1OCCC[C@@H](C1CC1)CN1/C(=N/C2=O)Nc2ccc(NC(=O)CCCN(C)C)cc21 , which is 0.15

Cc1cc2cc(n1)-c1cnn(C)c1OCCC[C@@H](C1CC1)CN1/C(=N/C2=O)Nc2cc(NCCCN(C)C)ccc21 has a reported IC50 of 0.01

###

// reported log10 IC50 per item
# ASSAY_SYSTEM: Epidermal growth factor receptor [T790M,C797S,L858R] (UniProt P00533, C797S/L858R/T790M)
# Sequence (P00533 25-1210 T790M/C797S/L858R limits assumed): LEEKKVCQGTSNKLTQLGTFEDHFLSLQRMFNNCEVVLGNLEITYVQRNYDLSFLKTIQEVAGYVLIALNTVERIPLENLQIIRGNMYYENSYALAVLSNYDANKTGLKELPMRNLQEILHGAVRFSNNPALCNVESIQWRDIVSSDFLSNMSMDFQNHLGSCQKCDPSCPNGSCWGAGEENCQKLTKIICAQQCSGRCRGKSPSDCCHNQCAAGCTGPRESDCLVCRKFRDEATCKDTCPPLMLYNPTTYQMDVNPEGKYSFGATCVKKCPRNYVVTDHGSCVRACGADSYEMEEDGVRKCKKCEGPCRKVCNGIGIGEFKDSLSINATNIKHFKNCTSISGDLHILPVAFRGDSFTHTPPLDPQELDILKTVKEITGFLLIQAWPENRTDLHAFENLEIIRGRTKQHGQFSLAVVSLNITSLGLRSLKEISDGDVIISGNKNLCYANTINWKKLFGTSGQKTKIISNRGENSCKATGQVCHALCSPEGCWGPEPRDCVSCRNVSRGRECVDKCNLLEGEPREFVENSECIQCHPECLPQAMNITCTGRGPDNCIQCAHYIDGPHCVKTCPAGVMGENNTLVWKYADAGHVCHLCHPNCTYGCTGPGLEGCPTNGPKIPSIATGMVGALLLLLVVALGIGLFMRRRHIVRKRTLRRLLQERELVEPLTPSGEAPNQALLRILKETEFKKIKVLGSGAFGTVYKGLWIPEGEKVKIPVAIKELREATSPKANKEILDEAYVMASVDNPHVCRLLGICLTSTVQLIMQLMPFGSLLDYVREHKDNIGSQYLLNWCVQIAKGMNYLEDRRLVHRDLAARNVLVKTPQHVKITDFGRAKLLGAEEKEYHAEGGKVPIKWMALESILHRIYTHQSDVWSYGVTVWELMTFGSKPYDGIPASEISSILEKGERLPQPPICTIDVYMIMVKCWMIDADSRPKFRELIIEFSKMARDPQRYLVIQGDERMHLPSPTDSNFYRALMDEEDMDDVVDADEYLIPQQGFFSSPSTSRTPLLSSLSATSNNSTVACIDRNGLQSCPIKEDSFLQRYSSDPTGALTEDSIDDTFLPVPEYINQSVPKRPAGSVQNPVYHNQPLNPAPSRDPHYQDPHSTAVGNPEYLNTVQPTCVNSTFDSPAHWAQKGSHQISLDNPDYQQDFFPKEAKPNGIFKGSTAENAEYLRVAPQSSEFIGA
# PROTOCOL_DESCRIPTION: Inhibitory Activity for EGFR (L858R/T790M/C797S) Kinase
Units before log transform: nM; reported quantity: IC50; transform: log10.

Consider the following illustrative entries.
# COMPOUND, log10 IC50
measured = [
    ("Cc1cc2cc(n1)-c1cnn(C)c1OCCC[C@@H](C1CC1)CN1/C(=N/C2=O)Nc2cc(N[C@H](C)CN3CCCCC3)ccc21 [US20250034165, Example 137]", -0.28),
    ("Cc1cc2cc(n1)-c1cnn(C)c1OCCC[C@@H](C1CC1)CN1/C(=N/C2=O)Nc2cc(N[C@@H](C)CCN3CCCCC3)ccc21 [US20250034165, Example 140]", -0.52),
    ("Cc1cc2cc(n1)-c1cnn(C)c1OCCC[C@@H](C1CC1)CN1/C(=N/C2=O)Nc2ccc(N[C@@H](C)CN3CCCCC3)cc21 [US20250034165, Example 142]", -0.46),
    ("Cc1cc2cc(n1)-c1cnn(C)c1OCCC[C@@H](C1CC1)CN1/C(=N/C2=O)Nc2cc(NC(C)C3COC3)ccc21 (stereo partly drawn) [US20250034165, Example 37]", -1.43),
    ("CNCCCNc1ccc2c(c1)N/C1=N\\C(=O)c3cc(C)nc(c3)-c3cnn(C)c3OCCC[C@@H](C3CC3)CN12 [US20250034165, Example 49]", -1.29),
]

The recorded log10 IC50 for entry Cc1cc2cc(n1)-c1cnn(C)c1OCCC[C@@H](C1CC1)CN1/C(=N/C2=O)Nc2cc(NC3CCN(C)CC3)ccc21 [US20250034165, Example 10] equals -1.72

Measured log10 IC50, Cc1cc2cc(n1)-c1cnn(C)c1OCCC[C@@H](C1CC1)CN1/C(=N/C2=O)Nc2ccc(NC3CCN(C(C)C)CC3)cc21 [US20250034165, Example 54] : -1.60

Lab note: Cc1cc2cc(n1)-c1cnn(C)c1OCCC[C@@H](C1CC1)CN1/C(=N/C2=O)Nc2ccc(NCCCN3CCOCC3)cc21 [US20250034165, Example 81] gave log10 IC50 of -1.57

Reported log10 IC50 of Cc1cc2cc(n1)-c1cnn(C)c1OCCC[C@@H](C1CC1)CN1/C(=N/C2=O)Nc2ccc(OCCN(C)C)cc21 [US20250034165, Example 11] : -1.26

Item: CCN1CCC(Nc2ccc3c(c2)N2C[C@H](C4CC4)CCCOc4c(cnn4C)-c4cc(cc(C)n4)C(=O)/N=C/2N3)CC1 [US20250034165, Example 55] | log10 IC50: -1.66

Consider Cc1cc2cc(n1)-c1cnn(C)c1OCCC[C@@H](C1CC1)CN1/C(=N/C2=O)Nc2cc(NC3CCC3)ccc21 [US20250034165, Example 79] . Its measured log10 IC50 is -0.91

Lab book: log10 IC50 of Cc1cc2cc(n1)-c1cnn(C)c1OCCC[C@@H](C1CC1)CN1/C(=N/C2=O)Nc2cc(NCCN3CCCC3)ccc21 [US20250034165, Example 72] noted as -1.68
